Assay: Pharmacokinetic study in male Sprague Dawley rats
Format: in vivo
Conditions: male, Sprague Dawley, rat, plasma, iv, 2 mg/kg, Intravenous (Dose: 2 mg/kg), two compartment model
experimental-readout: Cmax (µg/mL)
Number only, in µg/mL; omit the unit.

Query: Return Cmax for the following compound: Oc1c(Br)cc(Cl)c2cccnc12
Result: 2.6

* * *

Test: Pharmacokinetic study in male Sprague Dawley rats
Assay type: in vivo
Settings: male, Sprague Dawley, rat, plasma, po, 20 mg/kg, Oral (Dose: 20 mg/kg), two compartment model, read-out: T1/2abs (absorption half-life) (converted)
Experimental: Pharmacokinetic evaluation elucidates the fate of compound 5 in living systems. The pharmacokinetic study of compound 5 was also a means to verify the applicability of the LC-MS/MS assay method and the formulations. […] The plasma and urine samples were analyzed (within 7 days) using the developed LC/MS/MS method to determine the concentration of compound 5. […]
experimental-readout: half-life (min)
Number only, in min; omit the unit.

Query: Return half-life for the following compound: Oc1c(Br)cc(Cl)c2cccnc12
Result: 8.4
